All figures here come from patent US20240247080A1.

Let's look at some binders and their measured EC50 hGLP1R 100% hP (CreLuc).
TESTED ON: human GLP-1 receptor (human, UniProt P43220 24-463)
ASSAY PROCEDURE: cell-based or functional assay
Starred links: 1 amine or outer side, 2 acyl side, 3 side chain; linkers in the order of their positions; H or OH if unused. Non-standard residues stand in square brackets, D forms with d. Groups on a side chain read outwards from the residue. No end group written: not given here. *: point of attachment. C20 diacid = O=C(O)CCCCCCCCCCCCCCCCCCC(=O)*; C18 diacid = O=C(O)CCCCCCCCCCCCCCCCC(=O)*; γGlu = O=C(O)[C@H](CCC(=O)[*:2])N[*:1]; εLys = N[C@@H](CCCCN[*:1])C(=O)[*:2]; Aib = CC(C)(N)C(=O)O; OEG = OEG spacer
Provide the measurement as a number trailed by its unit.

BINDER	EC50 hGLP1R 100% hP (CreLuc)
Y[Aib]EGTFTSDYSI[Aib]LEKQAQ[Aib]AFVQWLIK([OEG-OEG-γGlu-γGlu-γGlu-C18 diacid])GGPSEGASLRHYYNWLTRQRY-NH2 (also: TFA salt) [Compound 266]	2.21 nM
Y[Aib]EGTFTSDYSI[Aib]LEKQAQ[Aib]AFVEWLIK([εLys-γGlu-γGlu-γGlu-γGlu-γGlu-γGlu-γGlu-C20 diacid])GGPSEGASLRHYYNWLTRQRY-NH2 (also: TFA salt) [Compound 288]	3.21 nM
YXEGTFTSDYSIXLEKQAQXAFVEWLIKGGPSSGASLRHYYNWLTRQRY (Aib at 2, 13, 20; K28 side chain acylated with C18DA-gGlu-gGlu-gGlu-gGlu-gGlu-gGlu-eLys; C-terminal amide (NH2)) [Compound 259]	2.55 nM

Provide EC50 hGLP1R 100% hP (CreLuc) value for the following binder: Y[Aib]EGTFTSDYSI[Aib]LEKQAQ[Aib]AFVQWLIK([γGlu-γGlu-γGlu-γGlu-C18 diacid])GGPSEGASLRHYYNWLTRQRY-NH2 (also: TFA salt) [Compound 268]
1.55 nM

Provide EC50 hGLP1R 100% hP (CreLuc) value for the following binder: Y[Aib]EGTFTSDYSI[Aib]LEKQAQ[Aib]AFVEWLIK([γGlu-γGlu-γGlu-γGlu-C18 diacid])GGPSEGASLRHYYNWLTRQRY-NH2 (also: TFA salt) [Compound 294]
3.2 nM

Provide EC50 hGLP1R 100% hP (CreLuc) value for the following binder: Y[Aib]EGTFTSDYSI[Aib]LEKQAQ[Aib]AFVEWLIK([OEG-OEG-Glu-Glu-Glu-C18 diacid])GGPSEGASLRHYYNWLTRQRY-NH2 (also: TFA salt) [Compound 298]
5.22 nM
